Entries and their measured pEC50 follow.
- system: Ba/F3 stable cells (Homo sapiens, UniProt P00533, INS763FQEA, cells depend on it)
- Construct: EC50 Ba/F3-EGFR A763-Y764insFQEA; other: Ba/F3-EGFR A763-Y764insFQEA cells, 72 h, CCK-8
- Sequence (P00533 with tags, fused parts or gaps INS763FQEA): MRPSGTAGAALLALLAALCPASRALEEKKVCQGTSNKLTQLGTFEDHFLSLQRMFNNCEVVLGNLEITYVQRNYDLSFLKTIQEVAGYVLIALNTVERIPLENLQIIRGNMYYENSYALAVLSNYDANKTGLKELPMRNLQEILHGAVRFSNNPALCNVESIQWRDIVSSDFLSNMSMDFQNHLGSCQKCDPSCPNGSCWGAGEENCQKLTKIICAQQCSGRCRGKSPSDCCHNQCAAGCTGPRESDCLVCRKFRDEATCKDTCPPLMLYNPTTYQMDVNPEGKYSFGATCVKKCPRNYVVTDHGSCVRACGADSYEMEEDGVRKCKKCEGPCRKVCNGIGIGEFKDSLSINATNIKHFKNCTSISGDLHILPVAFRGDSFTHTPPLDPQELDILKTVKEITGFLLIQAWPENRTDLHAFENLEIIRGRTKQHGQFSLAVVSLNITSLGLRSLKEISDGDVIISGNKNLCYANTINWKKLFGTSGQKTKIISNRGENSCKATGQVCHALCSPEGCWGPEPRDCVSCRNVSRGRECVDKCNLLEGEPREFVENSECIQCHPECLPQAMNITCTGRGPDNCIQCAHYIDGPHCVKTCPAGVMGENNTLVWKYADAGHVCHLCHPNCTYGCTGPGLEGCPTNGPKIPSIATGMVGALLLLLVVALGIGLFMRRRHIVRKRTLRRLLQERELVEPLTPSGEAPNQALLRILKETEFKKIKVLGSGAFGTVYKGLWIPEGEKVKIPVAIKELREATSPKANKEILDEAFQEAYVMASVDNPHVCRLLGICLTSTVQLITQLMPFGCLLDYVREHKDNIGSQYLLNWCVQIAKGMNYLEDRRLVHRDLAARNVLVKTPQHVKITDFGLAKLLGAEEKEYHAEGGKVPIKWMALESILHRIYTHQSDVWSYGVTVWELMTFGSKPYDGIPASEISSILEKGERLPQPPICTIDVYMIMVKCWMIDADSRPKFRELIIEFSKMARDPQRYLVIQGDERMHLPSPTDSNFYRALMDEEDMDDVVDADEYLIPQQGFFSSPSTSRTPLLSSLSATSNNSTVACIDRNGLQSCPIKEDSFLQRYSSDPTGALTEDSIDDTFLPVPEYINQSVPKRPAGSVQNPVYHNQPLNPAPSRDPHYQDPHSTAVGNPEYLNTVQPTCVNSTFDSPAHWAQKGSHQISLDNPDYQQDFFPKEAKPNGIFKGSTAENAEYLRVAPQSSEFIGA
- measurementProtocol: EC50 assay: Ba/F3 stable cell proliferation (CCK-8, 72 h)
- runConditions: Ba/F3-EGFR A763-Y764insFQEA cells
pEC50: −log10 of the molar value.

C=CC(=O)N[C@H]1C[C@@H](Oc2cc3c(C(=O)N[C@H](C)c4ccc(F)cc4)ncnc3cc2OC)C1 [Compound 97]    < 6.00
C=CC(=O)N1CCC(Oc2cc3c(Nc4cccc5[nH]ccc45)ncnc3cc2OC)CC1 [Compound 165]    ≥ 6.70
C=CC(=O)N1CCCC(Oc2cc3c(Nc4ccc(Cl)c(Cl)c4F)ncnc3cc2OC)C1 (centres unmarked) [Compound 132]    ≥ 6.70
C=CC(=O)N1CCC(Oc2cc3c(Nc4ccc5cnccc5c4)ncnc3cc2OC)CC1 [Compound 140]    < 6.00

Query block: Output measured pEC50 for this item: C=CC(=O)N1CCC(Oc2cc3c(Nc4nccc5ccccc45)ncnc3cc2OC)CC1 [Compound 161]
Result block: ≥ 6.70

Query block: Name the recorded pEC50 of the item C=CC(=O)N1CCC(Oc2cc3c(Nc4ccc5[nH]ccc5c4)ncnc3cc2OC)CC1 [Compound 169] in your answer.
Result block: ≥ 6.70

Query block: Tell me its pEC50 given C#CC(=O)N1CCCC(c2ccc3ncnc(Nc4ccc(Cl)c(Cl)c4F)c3c2)C1 (centres unmarked) [Compound 61] as the entry.
Result block: ≥ 6.70

Query block: Look up and report measured pEC50 for this entry: C=CC(=O)N1CCC(Oc2cc3c(Nc4cnc5ccccc5c4)ncnc3cc2OC)CC1 [Compound 135]
Result block: ≥ 6.70
